test system: primary human mesenchymal stem cells (hMSCs); experiment: Induction of chondrogenesis in hMSCs (nodule count); assay type: cell-based; conditions: 6 days, concentration required to induce 50% levels of chondrogenesis vs TGF-β3, read-out: Conc (nM) of 50% TGF-β3 activity
Checkbox rule: EC50 lower than 30 nM = 1; EC50 not lower than 30 nM = -1.

Check out these entries, answers already filled in.
Fc1ccc(-c2cncc3[nH]c(-c4n[nH]c5ncc(-c6cncc(CN7CCCC7)c6)cc45)cc23)cc1 [Compound 42] :: -1
CCC(=O)Nc1cncc(-c2cnc3[nH]nc(-c4cc5c(-c6cccc(F)c6)cncc5[nH]4)c3c2)c1 [Compound 1] :: 1
CS(=O)(=O)NCc1cc(F)cc(-c2cncc3[nH]c(-c4n[nH]c5ncc(-c6cccnc6)cc45)cc23)c1 [Compound 480] :: -1
CCCCC(=O)Nc1cncc(-c2cnc3[nH]nc(-c4cc5c(-c6ccncc6)cncc5[nH]4)c3c2)c1 [Compound 131] :: 1
Fc1cccc(-c2cncc3[nH]c(-c4n[nH]c5ncc(-c6cncc(CN7CCCCC7)c6)cc45)cc23)c1 [Compound 15] :: 1
O=C(Nc1cncc(-c2cnc3[nH]nc(-c4cc5c(-c6ccccc6F)cncc5[nH]4)c3c2)c1)C1CC1 [Compound 76] :: 1
Cc1ncc(-c2cnc3[nH]nc(-c4cc5c(-c6ccncc6)cncc5[nH]4)c3c2)n1C [Compound 573] :: 1
Fc1cccc(-c2cncc3[nH]c(-c4n[nH]c5ncc(-c6cncc(CNCc7ccccc7)c6)cc45)cc23)c1 [Compound 24] :: -1
Fc1ccccc1-c1cncc2[nH]c(-c3n[nH]c4ncc(-c5cn[nH]c5)cc34)cc12 [Compound 539] :: -1
O=C(Nc1cncc(-c2cnc3[nH]nc(-c4cc5ccncc5[nH]4)c3c2)c1)C1CCCCC1 [Compound 275] :: -1

Now, please, on to the next molecule.
Exercise: Does Cc1ccncc1-c1cnc2[nH]nc(-c3cc4c(-c5ccc(F)cc5)cncc4[nH]3)c2c1 [Compound 33] have EC50 strictly under 30 nM?
Solution: 1
